# SYSTEM_NAME: Leukotriene B4 receptor (Homo sapiens, UniProt Q9NPC1+Q15722)
# PROTOCOL_SUMMARY: Ability to inhibit LTB4 binding to LTB receptors on isolated human neutrophils.
# Type: protein assay
compounds and their reported IC50
Please respond with the number in nM and leave the unit unwritten.

Worked set:
O=S(=O)(Nc1ccc(F)cc1-c1ccc2c(c1)OC[C@H](Cc1ccccc1)[C@H]2O)C(F)(F)F (stereo in doubt; 39)	50
O=C(O)c1ccc(F)cc1-c1ccc2c(c1)OC[C@H](Cc1ccccc1)[C@H]2O (stereo in doubt; 10)	27

Moving on to the next compound.
Looking for the measured IC50 of O=C(O)c1c(F)cc(F)cc1-c1ccc2c(c1)OC[C@H](Cc1ccccc1)[C@H]2O , can you help?
5

###

compounds and their reported IC50
# SYSTEM_NAME: Leukotriene B4 receptor (Homo sapiens, UniProt Q9NPC1+Q15722)
# PROTOCOL_SUMMARY: Ability to inhibit LTB4-induced chemotaxis of isolated human neutrophils.
# Format: functional
Please respond with the number in nM and leave the unit unwritten.

Looking for the measured IC50 of O=S(=O)(Nc1ccc(F)cc1-c1ccc2c(c1)OC[C@H](Cc1ccccc1)[C@H]2O)C(F)(F)F (stereo in doubt; 38) , can you help?
15

Looking for the measured IC50 of O=S(=O)(Nc1ccc(F)cc1-c1ccc2c(c1)OC[C@H](Cc1ccccc1)[C@H]2O)C(F)(F)F (stereo in doubt; 39) , can you help?
44

Looking for the measured IC50 of O=C(O)c1ccc(Cl)cc1-c1ccc2c(c1)OC[C@H](Cc1ccc(F)cc1)[C@H]2O , can you help?
400

Looking for the measured IC50 of NS(=O)(=O)c1ccc(F)cc1-c1ccc2c(c1)OC[C@H](Cc1ccccc1)[C@H]2O , can you help?
17

Looking for the measured IC50 of O=C(O)c1ccc(Cl)cc1-c1ccc2c(c1)OC[C@H](Cc1ccccc1)[C@H]2O (stereo in doubt; 7) , can you help?
83

Looking for the measured IC50 of O=C(O)c1c(F)cccc1-c1ccc2c(c1)OC[C@H](Cc1ccccc1)[C@H]2O (stereo in doubt; 14) , can you help?
650

Looking for the measured IC50 of O=C(O)c1ccc(F)cc1-c1ccc2c(c1)OC[C@H](Cc1ccccc1)[C@H]2O (stereo in doubt; 9) , can you help?
14

Looking for the measured IC50 of O=C(O)c1ccc(C(F)(F)F)cc1-c1ccc2c(c1)OC[C@H](Cc1ccc(Cl)cc1)[C@H]2O , can you help?
58

Looking for the measured IC50 of O=C(O)c1ccc(F)cc1-c1ccc2c(c1)OC[C@H](Cc1ccc(-c3ccccc3)cc1)[C@H]2O (stereo in doubt; 25) , can you help?
5

Looking for the measured IC50 of O=C(O)c1ccc(F)cc1-c1ccc2c(c1)OC[C@H](Cc1ccccc1)[C@H]2O (stereo in doubt; 10) , can you help?
5

Looking for the measured IC50 of O=C(O)c1cc(F)ccc1-c1ccc2c(c1)OC[C@H](Cc1ccccc1)[C@H]2O , can you help?
300

Looking for the measured IC50 of O=C(O)c1ccc(F)cc1-c1ccc2c(c1)OC[C@H](CCc1ccccc1)[C@H]2O , can you help?
32

Looking for the measured IC50 of O=C(O)c1ccc(C(F)(F)F)cc1-c1ccc2c(c1)OC[C@H](Cc1ccccc1)[C@H]2O (stereo in doubt; 17) [CP-195543] , can you help?
2

Looking for the measured IC50 of O=C(O)c1ccc(Cl)cc1-c1ccc2c(c1)OC[C@H](Cc1ccc(-c3ccccc3)cc1)[C@H]2O (stereo in doubt; 22) , can you help?
6

Looking for the measured IC50 of O=C(O)c1c(F)cc(F)cc1-c1ccc2c(c1)OC[C@H](Cc1ccccc1)[C@H]2O , can you help?
40

Looking for the measured IC50 of O=C(O)c1ccc(F)cc1-c1ccc2c(c1)OC[C@H](Cc1ccccc1)[C@H]2O (stereo in doubt; 8) , can you help?
5

The measurements presented in this section are drawn from ChEMBL document CHEMBL1130879.
